# Study Target: GPR119 (Homo sapiens, UniProt Q8TDV5)
# Sequence (Q8TDV5 1-335): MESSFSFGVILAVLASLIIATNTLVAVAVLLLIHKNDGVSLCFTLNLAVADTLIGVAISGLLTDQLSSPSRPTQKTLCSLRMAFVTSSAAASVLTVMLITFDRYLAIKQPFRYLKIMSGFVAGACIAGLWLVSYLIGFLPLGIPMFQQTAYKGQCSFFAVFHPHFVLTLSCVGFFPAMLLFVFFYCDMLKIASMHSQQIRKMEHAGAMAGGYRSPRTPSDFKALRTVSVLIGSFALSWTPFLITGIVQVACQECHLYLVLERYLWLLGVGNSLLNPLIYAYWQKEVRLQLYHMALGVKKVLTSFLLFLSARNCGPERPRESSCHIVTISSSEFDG
# Assay Notes: cAMP Accumulation Assay (GPR119 CRE-bla CHO-K1 cells, LiveBLAzer-FRET B/G)
# Run Parameters: 5 hours incubation
Could you please mark 1 for values of EC50 below 5 nM and 0 for values at or above it?

Would you please look over these solved cases?
Given Smiles | Qualitative Label
CCCn1ncn(-c2ccc(-c3cnc(N4CCC(c5noc(C(C)C)n5)CC4)c(C#N)c3)cc2F)c1=O | 1
CCc1cnc(N2CCN(c3ncc(-c4ccc(-n5cnn([C@@H]6CCNC6)c5=O)c(F)c4)cc3C#N)CC2)nc1 | 0
CCc1cnc(N2CCN(c3ncc(-c4ccc(-n5cnn(CCOC)c5=O)cc4)cc3C#N)CC2)nc1 | 0
CCc1cnc(N2CCN(c3ncc(-c4ccc(-n5cnn(CC(=O)N6CCCC6)c5=O)c(F)c4)cc3C#N)CC2)nc1 | 1

Exam item: A record lists CC(C)c1nc(N2CCN(c3ncc(-c4ccc(-n5cnn(C)c5=O)c(F)c4)cc3C#N)CC2)no1 . Is its EC50 below 5 nM?
Marked response: 0

Exam item: A record lists CCc1cnc(N2CCN(c3ncc(-c4ccc(-n5cnn(C[C@H](O)CO)c5=O)c(F)c4)cc3C#N)CC2)nc1 . Is its EC50 below 5 nM?
Marked response: 0

Exam item: A record lists CCn1ncn(-c2ccc(-c3cnc(N4CCC(c5nc(C(C)C)no5)CC4)c(C#N)c3)cc2)c1=O . Is its EC50 below 5 nM?
Marked response: 1

---

# Study Target: GPR119 (Homo sapiens, UniProt Q8TDV5)
# Construct: host or cells: CHO-K1 (GPR119 CRE-bla, doxycycline-induced)
# Assay Notes: cAMP Accumulation Assay (GPR119 CRE-bla CHO-K1 cells, LiveBLAzer-FRET B/G)
# Format: cell-based
# Run Parameters: (Emax of the test compound/Emax of MBX-2982)x100, 5 hours incubation
Here the recorded Emax (% RR) is given for each entry.
The reply should be a number in % RR, with the unit left off.

// solved cases for Emax (% RR) follow
Given Smiles | Study Target | Test Readout | Result
CC(C)c1nc(N2CCN(c3ncc(-c4ccc(-n5cnn(C)c5=O)c(F)c4)cc3C#N)CC2)no1 | GPR119 (Homo sapiens, UniProt Q8TDV5) | Emax (% RR) | 144.7
CCc1cnc(N2CCN(c3ncc(-c4ccc(-n5cnn(CCOC)c5=O)c(F)c4)cc3C#N)CC2)nc1 | GPR119 (Homo sapiens, UniProt Q8TDV5) | Emax (% RR) | 148.7
CCc1cnc(N2CCN(c3ncc(-c4ccc(-n5cn[nH]c5=O)c(F)c4)cc3C#N)[C@@H](C)C2)nc1 | GPR119 (Homo sapiens, UniProt Q8TDV5) | Emax (% RR) | 102.0
CCc1cnc(N2CCN(c3ncc(-c4ccc(-n5cnn(C(C)C)c5=O)c(F)c4)cc3C#N)CC2)nc1.Cl | GPR119 (Homo sapiens, UniProt Q8TDV5) | Emax (% RR) | 130.9
CCc1cnc(N2CCN(c3ncc(-c4ccc(-n5cnn(CCN)c5=O)c(F)c4)cc3C#N)[C@@H](C)C2)nc1.Cl | GPR119 (Homo sapiens, UniProt Q8TDV5) | Emax (% RR) | 115.1
CCc1cnc(N2CCN(c3ncc(-c4ccc(-n5cnn(CC#N)c5=O)c(F)c4)cc3C#N)[C@@H](C)C2)nc1 | GPR119 (Homo sapiens, UniProt Q8TDV5) | Emax (% RR) | 104.6

Moving on to the next compound.
Exam item: Name the reported Emax (% RR) value associated with the compound CCc1cnc(N2CCN(c3ncc(-c4ccc(-n5cnn(CCN6CCCC6)c5=O)c(F)c4)cc3C#N)[C@@H](C)C2)nc1
Marked response: 125.1

---

# Study Target: GPR119 (Homo sapiens, UniProt Q8TDV5)
# Construct: host or cells: CHO-K1 (GPR119 CRE-bla, doxycycline-induced)
# Assay Notes: cAMP Accumulation Assay (GPR119 CRE-bla CHO-K1 cells, LiveBLAzer-FRET B/G)
# Assay type: cell-based
# Run Parameters: (Emax of the test compound/Emax of MBX-2982)x100, 5 hours incubation
Test Readout: Emax (% RR)
The reply should be a number in % RR, with the unit left off.

// solved cases for Emax (% RR) follow
Compound | Unit Of Measure | Emax (% RR)
CCc1cnc(N2CCN(c3ncc(-c4cc(F)c(-n5cnn(C)c5=O)cc4F)cc3C#N)[C@@H](C)C2)nc1 [Example 29] | % RR | 110.1
CCCn1ncn(-c2ccc(-c3cnc(N4CCC(c5noc(C(C)C)n5)CC4)c(C#N)c3)cc2F)c1=O [Example 66] | % RR | 122.1

Exam item: Field: Emax (% RR) (GPR119 (Homo sapiens, UniProt Q8TDV5)). Entry: CC(C)c1nc(N2CCN(c3ncc(-c4ccc(-n5cnn([C@H]6CCOC6)c5=O)c(F)c4)cc3C#N)CC2)no1 [Example 47]
Marked response: 141.6

Exam item: Field: Emax (% RR) (GPR119 (Homo sapiens, UniProt Q8TDV5)). Entry: CCc1cnc(N2CCN(c3ncc(-c4ccc(-n5cnn(CN6CCN(C)CC6)c5=O)c(F)c4)cc3C#N)[C@@H](C)C2)nc1 [Example 27]
Marked response: 149.4

Exam item: Field: Emax (% RR) (GPR119 (Homo sapiens, UniProt Q8TDV5)). Entry: CCc1cnc(N2CCN(c3ncc(-c4ccc(-n5cnn(C)c5=O)c(F)c4)cn3)[C@@H](C)C2)nc1 [Example 7]
Marked response: 111.5

Exam item: Field: Emax (% RR) (GPR119 (Homo sapiens, UniProt Q8TDV5)). Entry: CC(C)c1nc(C2CCN(c3ncc(-c4ccc(-n5cnn([C@H]6CCOC6)c5=O)cc4)cc3C#N)CC2)no1 [Example 71]
Marked response: 127.3

Exam item: Field: Emax (% RR) (GPR119 (Homo sapiens, UniProt Q8TDV5)). Entry: COCCn1ncn(-c2ccc(-c3cnc(N4CCN(C(=O)OC(C)(C)C)C[C@@H]4C)nc3)cc2F)c1=O [Example 4]
Marked response: 108.0

---

Here the recorded Emax (Fold) is given for each entry.
# Study Target: GPR119 (Homo sapiens)
# Construct: host or cells: CHO-K1 (GPR119 CRE-bla, doxycycline-induced)
# Assay Notes: cAMP Accumulation Assay (GPR119 CRE-bla CHO-K1 cells, LiveBLAzer-FRET B/G)
# Format: cell-based
# Run Parameters: maximum activity, response ratio versus non-treated control group
# Protocol: 32 μl of an assay medium (DMEM supplemented with GlutaMax™ 99%, dialyzed FBS 1%, non-essential amino acid 1 mM, HEPES 25 mM, penicillin 100 U/ml, and streptomycin 100 μg/ml) was added to each well of a 384 black well plate and then the GPR119 CRE-bla CHO-K1 cells (Invitrogen) were seeded in 1×10^4 cells per well. Doxycycline was dissolved in the assay medium in the concentration of 1 μg/ml. […]
The reply should be a number in Fold, with the unit left off.

// solved cases for Emax (Fold) follow
Compound | Emax (Fold)
CCc1cnc(N2CCN(c3ncc(-c4ccc(-n5cnn(CCNC(=O)OC(C)(C)C)c5=O)c(F)c4)cc3C#N)[C@@H](C)C2)nc1 [Example 16] | 3.3
CCn1ncn(-c2ccc(-c3cnc(N4CCC(c5nc(C(C)C)no5)CC4)c(C#N)c3)cc2)c1=O [Example 65] | 3.6
CC(C)n1ncn(-c2ccc(-c3cnc(N4CCC(c5nnc(C(F)(F)F)o5)CC4)c(C#N)c3)cc2F)c1=O [Example 74] | 3.0
CCc1cnc(N2CCN(c3ncc(-c4ccc(-n5cnn(CCN6CCOCC6)c5=O)c(F)c4)cc3C#N)[C@@H](C)C2)nc1 [Example 15] | 3.5
CC(C)c1nc(N2CCN(c3ncc(-c4ccc(-n5cnn([C@H]6CCOC6)c5=O)c(F)c4)cc3C#N)CC2)no1 [Example 47] | 3.2
CCc1cnc(N2CCN(c3ncc(-c4ccc(-n5cnn(CC#N)c5=O)c(F)c4)cc3C#N)[C@@H](C)C2)nc1 [Example 18] | 2.9
CCc1cnc(N2CCN(c3ncc(-c4ccc(-n5cnn(CC(C)(C)C#N)c5=O)c(F)c4)cc3C#N)[C@@H](C)C2)nc1 [Example 25] | 3.3
CCc1cnc(N2CCN(c3ncc(-c4ccc(-n5cnn(CN6CCN(C)CC6)c5=O)c(F)c4)cc3C#N)[C@@H](C)C2)nc1 [Example 27] | 4.0

Exam item: Name the reported Emax (Fold) value associated with the compound CCc1cnc(N2CCN(c3ncc(-c4ccc(-n5cnn(CCN6CCCC6)c5=O)c(F)c4)cc3C#N)[C@@H](C)C2)nc1 [Example 14]
Marked response: 3.3

Exam item: Name the reported Emax (Fold) value associated with the compound CC(C)n1ncn(-c2ccc(-c3cnc(N4CCC(c5nnc(C(F)(F)F)o5)CC4)c(C#N)c3)cc2)c1=O [Example 73]
Marked response: 2.9

Exam item: Name the reported Emax (Fold) value associated with the compound CCc1cnc(N2CCN(c3ncc(-c4ccc(-n5cnn(CCN)c5=O)c(F)c4)cc3C#N)[C@@H](C)C2)nc1.Cl [Example 17]
Marked response: 3.2

Exam item: Name the reported Emax (Fold) value associated with the compound CCc1cnc(N2CCN(c3ncc(-c4ccc(-n5cnn([C@@H]6CCNC6)c5=O)c(F)c4)cc3C#N)CC2)nc1 [Example 34]
Marked response: 3.2

Exam item: Name the reported Emax (Fold) value associated with the compound CCc1cnc(N2CCN(c3ncc(-c4ccc(-n5cnn(CC(=O)OC)c5=O)c(F)c4)cc3C#N)[C@@H](C)C2)nc1 [Example 13]
Marked response: 2.9
